target: Cytochrome P450 2C19 (Homo sapiens) (UniProt P33261); test: Cytochrome panel assay with activity outcomes; settings: recombinant CYP, pro-luciferin dealkylation, luminescence, p450-cyp2c19; series mostly up to 57.1 µM
Sequence (P33261 whole entry, looked up): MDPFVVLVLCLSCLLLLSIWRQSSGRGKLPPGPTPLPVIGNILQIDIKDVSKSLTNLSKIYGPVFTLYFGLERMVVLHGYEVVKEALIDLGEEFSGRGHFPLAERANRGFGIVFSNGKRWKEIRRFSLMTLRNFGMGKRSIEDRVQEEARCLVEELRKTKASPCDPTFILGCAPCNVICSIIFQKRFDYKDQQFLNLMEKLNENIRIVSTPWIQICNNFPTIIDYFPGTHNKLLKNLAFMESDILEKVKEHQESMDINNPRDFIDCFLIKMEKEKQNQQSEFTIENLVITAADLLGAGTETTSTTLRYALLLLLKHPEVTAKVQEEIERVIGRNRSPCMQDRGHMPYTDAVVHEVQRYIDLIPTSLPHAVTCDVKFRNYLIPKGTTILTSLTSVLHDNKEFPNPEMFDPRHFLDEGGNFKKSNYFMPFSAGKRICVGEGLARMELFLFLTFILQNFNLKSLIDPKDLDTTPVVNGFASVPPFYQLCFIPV
The whole screen tested about 16,000 compounds, of which about 5,800 (36%) were called active. Another 23% or so got no clear call; they are omitted. Calls come from the whole dose curve; as a rule, active = well fitted curve in the direction sought with a large enough effect; inconclusive = small, poorly fitted or top-dose-only effect, or effect the other way; inactive = no such curve, though single readings can be large or run the other way. The list shows a part of the results.
Possible outcomes: active, inactive

- compound: "O=S(=O)(c1ccccc1)N1CCC2(CCN(c3ncccn3)CC2)CC1"
  answer label: "inactive"
- compound: "O=C(c1cnccn1)N1CCC2(CC1)CN(c1ccccn1)C2"
  answer label: "inactive"
- compound: "O=C(Nn1cc(C(=O)N2CCN(c3ccccc3F)CC2)c2ccccc2c1=O)c1cnccn1"
  answer label: "inactive"
- compound: "O=c1c(-c2cc(F)cc(F)c2)nc2cnc(N3CCOCC3)nc2n1C[C@H]1CCCO1"
  answer label: "inactive"
- compound: "O=C(c1cnc(N2CCN(c3ncccn3)CC2)c2ccccc12)N1CCN(c2ccccn2)CC1"
  answer label: "active"
- compound: "Cn1cccc1C(=O)N1CCC2(CC1)CCN(c1ncccn1)CC2"
  answer label: "inactive"
- compound: "O=C(c1cnc(N2CCN(c3ncccn3)CC2)c2ccccc12)N1CCN(c2ncccn2)CC1"
  answer label: "active"
- compound: "CN(Cc1ccco1)c1cc(-c2ccccc2C(F)(F)F)ncn1"
  answer label: "active"
- compound: "O=C(c1cnccn1)N1CCC2(CC1)CCN(c1ccccn1)CC2"
  answer label: "inactive"
- compound: "NC(=Nc1ccccc1)NC(=O)c1nc(Cl)c(N)nc1N"
  answer label: "inactive"
- compound: "CC(C)c1ccc(OCc2ccc(C(=O)N3CCN(c4ccccn4)CC3)cc2)cc1"
  answer label: "active"
- compound: "CCCC[C@@H]1C[C@H]1C(NC(=O)c1ccco1)c1ccccc1 (some centres not stated)"
  answer label: "active"
- compound: "CSc1nc(Cl)cc(N(CCO)CCO)n1"
  answer label: "inactive"
- compound: "O=S(=O)(c1ccccc1)N1CCN(c2cc(-c3ccccc3)nc3ncnn23)CC1"
  answer label: "active"
- compound: "O=C(C1CCN(S(=O)(=O)c2cccc3nsnc23)CC1)N1CCN(c2ccccc2F)CC1"
  answer label: "active"
- compound: "FC(F)(F)c1ccc(N2CCN(c3cc(-c4ccccc4)nc4ncnn34)CC2)nc1"
  answer label: "active"
- compound: "O=S(=O)(c1ccccc1S(=O)(=O)N1CCCCC1)N1CCCCC1"
  answer label: "active"
- compound: "COc1ccccc1C(=O)N1CCN(c2ccccn2)CC1"
  answer label: "active"
- compound: "CCC[C@@H]1C[C@@]1(CCC)C(NC(=O)OCc1ccccc1)c1ccc(-c2ccccc2)cc1 (some centres not stated)"
  answer label: "active"
- compound: "CCCC[C@@H]1C[C@H]1C(NC(=O)c1ccco1)c1ccc(Cl)cc1 (some centres not stated)"
  answer label: "active"
- compound: "COCC(=O)N1CCC2(CC1)CCN(c1ccccn1)CC2"
  answer label: "inactive"
- compound: "O=S(=O)(c1cccc2c(Cl)cccc12)N1CCCNCC1"
  answer label: "inactive"
